Experiment: Pharmacokinetics of HLJDD components in rat plasma after oral administration of HLJDD (LC-QqQ-MS, non-compartmental)
Assay type: in vivo, Sprague-Dawley rats
Conditions: normal rats (group B), oral HLJDD extract, crude material 3.5 g/kg, plasma, n = 6
measured.parameter: AUMClast (h*h*ng/ml)
Report the figure in h*h*ng/ml without appending any unit label.

Identify AUMClast associated with the compound O=C(O)[C@H]1O[C@@H](Oc2cc3oc(-c4ccccc4)cc(=O)c3c(O)c2O)[C@H](O)[C@@H](O)[C@@H]1O
34124.1

Identify AUMClast associated with the compound COc1ccc2cc3[n+](cc2c1OC)CCc1cc2c(cc1-3)OCO2
8.9

Identify AUMClast associated with the compound COc1c(O)cc2oc(-c3ccccc3)cc(=O)c2c1O
7.1

Identify AUMClast associated with the compound COc1c(O)cc(O)c2c(=O)cc(-c3ccccc3)oc12
31.8

Identify AUMClast associated with the compound COC(=O)C1=CO[C@@H](O[C@@H]2O[C@H](CO)[C@@H](O)[C@H](O)[C@H]2O)[C@@H]2C(CO)=CC[C@H]12 [geniposide]
192.5

Identify AUMClast associated with the compound COc1ccc2c(c1O)-c1c(O)c(OC)cc3c1[C@H](C2)[N+](C)(C)CC3
29.5

Identify AUMClast associated with the compound COc1c(O[C@@H]2O[C@H](C(=O)O)[C@@H](O)[C@H](O)[C@H]2O)cc(O)c2c(=O)cc(-c3ccccc3)oc12 [wogonoside]
15357.0

Identify AUMClast associated with the compound COc1c(O[C@@H]2O[C@H](C(=O)O)[C@@H](O)[C@H](O)[C@H]2O)cc2oc(-c3ccccc3)cc(=O)c2c1O [oroxylin A-7-O-glucuronide]
1935.2
